# Measured target: native PcrV on live Pseudomonas aeruginosa (strains O6-57/66, O11-PA103, O1-52/66, O16-177/81) (Pseudomonas aeruginosa)
# Test name: cell-based or functional assay
Property label: A549 cytotoxicity assay IC50 (P. aeruginosa strain PA103(O11)) (µg/mL)
Kindly answer with a numeric value in µg/mL, unit omitted.

# annotated cases, reported A549 cytotoxicity assay IC50 (P. aeruginosa strain PA103(O11)) shown
Binder | Unit spec | Value measured
3G3 (antibody, V domains shown, also called optimized anti-PcrV mAb clone 3G3) VH: EVQLLESGGGLVQPGGSLRLSCTASGFTFSDYPMSWVRQAPGKGLDWVSGISESGGSTYDADSVKGRFSTSRDNSKSTLYLDMNSLRAEDTAIYYCAKGRFSASAGHFFRAVYGMDVWGQGTAVTVSS VL: DIQLTQSPSSLSASVGDRVTITCRASQGIRSYLAWYQQKPGKAPKLLIYAASTLQSGVPSRFSGSGSGTDFTLTISSLQPEDFATYYCQQLSSYPLSFGGGTKVEIK | µg/mL | 2.75
3A11 (antibody, V domains shown, also called optimized anti-PcrV mAb clone 3A11) VH: EVQLLESGGGLVQPGGSLRLSCTASGFTFSSYHMSWVRQAPGKGLDWVSGISESGGSTNYADSVKGRFSTSRDNSKSTLYLDMNSLRAEDTAIYYCAKGRFSQSSSHFFRAVYGMDVWGQGTAVTVSS VL: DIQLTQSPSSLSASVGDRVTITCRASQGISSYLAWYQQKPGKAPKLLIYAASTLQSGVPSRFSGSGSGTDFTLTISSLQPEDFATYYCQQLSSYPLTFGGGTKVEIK | µg/mL | 0.91
6A10 (antibody, V domains shown, also called optimized anti-PcrV mAb clone 6A10) VH: EVQLLESGGGLVQPGGSLRLSCTASGFTFSDNHMSWVRQAPGKGLDWVSGISESGGSTNYADSVKGRFSTSRDNSKSTLYLDMNSLRAEDTAIYYCAKGRFSTSSSHFFRAVYGMDVWGQGTAVTVSS VL: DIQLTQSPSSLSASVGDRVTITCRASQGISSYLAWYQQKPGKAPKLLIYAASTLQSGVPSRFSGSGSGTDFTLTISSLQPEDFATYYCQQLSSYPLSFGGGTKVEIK | µg/mL | 2
5B3 (antibody, V domains shown, also called optimized anti-PcrV mAb clone 5B3) VH: EVQLLESGGGLVQPGGSLRLSCTASGFTFSDYPMSWVRQAPGKGLDWVSGISESGGSTNDADSVKGRFSTSRDNSKSTLYLDMNSLRAEDTAIYYCAKGRFSQDSYHFFRAVYGMDVWGQGTAVTVSS VL: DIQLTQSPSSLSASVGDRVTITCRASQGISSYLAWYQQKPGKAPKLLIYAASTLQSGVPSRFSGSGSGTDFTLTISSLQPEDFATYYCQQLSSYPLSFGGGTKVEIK | µg/mL | 2.39
7C1 (antibody, V domains shown, also called optimized anti-PcrV mAb clone 7C1) VH: EVQLLESGGGLVQPGGSLRLSCTASGFTFSDNHMSWVRQAPGKGLDWVSGISESGGSTNYADSVKGRFSTSRDNSKSTLYLDMNSLRAEDTAIYYCAKGRFSTSSSHFYRAVYGMDVWGQGTAVTVSS VL: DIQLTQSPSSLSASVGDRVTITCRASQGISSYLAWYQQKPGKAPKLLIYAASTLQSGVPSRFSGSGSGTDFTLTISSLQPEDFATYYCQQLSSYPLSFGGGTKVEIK | µg/mL | 1.36
2B1 (antibody, V domains shown, also called optimized anti-PcrV mAb clone 2B1) VH: EVQLLESGGGLVQPGGSLRLSCTASGFTFSSYPMSWVRQAPGKGLDWVSGISESGGSTNYADSVKGRFSTSRDNSKSTLYLDMNSLRAEDTAIYYCAKGRFSGESHHFFRAVYGMDVWGQGTAVTVSS VL: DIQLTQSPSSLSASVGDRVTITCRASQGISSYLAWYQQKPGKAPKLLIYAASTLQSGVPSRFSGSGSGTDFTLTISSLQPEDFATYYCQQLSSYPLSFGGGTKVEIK | µg/mL | 3.01
6D10 (antibody, V domains shown, also called optimized anti-PcrV mAb clone 6D10) VH: EVQLLESGGGLVQPGGSLRLSCTASGFTFSDYPMSWVRQAPGKGLDWVSGISESGGSTNYADSVKGRFSTSRDNSKSTLYLDMNSLRAEDTAIYYCAKGRFSTDSSHFYRAVYGMDVWGQGTAVTVSS VL: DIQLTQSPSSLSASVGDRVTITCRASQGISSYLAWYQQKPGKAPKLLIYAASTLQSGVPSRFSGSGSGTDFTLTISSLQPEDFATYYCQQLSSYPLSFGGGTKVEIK | µg/mL | 2.63
3H10 (antibody, V domains shown, also called optimized anti-PcrV mAb clone 3H10) VH: EVQLLESGGGLVQPGGSLRLSCTASGFTFSDYPMSWVRQAPGKGLDWVSGISESGGSTNDADSVKGRFSTSRDNSKSTLYLDMNSLRAEDTAIYYCAKGRFSDYSQHFFRAVYGMDVWGQGTAVTVSS VL: DIQLTQSPSSLSASVGDRVTITCRASQGISSYLAWYQQKPGKAPKLLIYAASTLQSGVPSRFSGSGSGTDFTLTISSLQPEDFATYYCQQLNSYPLTFGGGTKVEIK | µg/mL | 1.78
13-42 mAb (antibody, V domains shown) VH: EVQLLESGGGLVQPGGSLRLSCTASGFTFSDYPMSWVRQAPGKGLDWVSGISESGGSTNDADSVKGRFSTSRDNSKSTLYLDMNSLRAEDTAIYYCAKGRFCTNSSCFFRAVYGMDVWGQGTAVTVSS VL: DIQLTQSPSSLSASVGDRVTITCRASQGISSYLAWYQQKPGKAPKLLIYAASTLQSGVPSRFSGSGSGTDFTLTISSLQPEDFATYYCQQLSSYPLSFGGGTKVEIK | µg/mL | 2.67

Report A549 cytotoxicity assay IC50 (P. aeruginosa strain PA103(O11)) for 3B12 (antibody, V domains shown, also called optimized anti-PcrV mAb clone 3B12) VH: EVQLLESGGGLVQPGGSLRLSCTASGFTFSSNHMSWVRQAPGKGLDWVSGISESGGSTNYADSVKGRFSTSRDNSKSTLYLDMNSLRAEDTAIYYCAKGRFSDEYGHFFRAVYGMDVWGQGTAVTVSS VL: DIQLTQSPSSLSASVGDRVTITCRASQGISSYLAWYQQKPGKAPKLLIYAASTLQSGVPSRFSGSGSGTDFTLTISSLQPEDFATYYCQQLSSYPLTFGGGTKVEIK please.
2.68

Recorded values, source patent US20220289830A1.
